# Procedure Text: in vivo
# Condition Parameters: rat, 0.6% aqueous solution of compound A in methyl cellulose, read-out: Estimated absorption
Quantity Measured: Fa

In: Report Fa for `CC(C)Oc1cccc(CC(=O)N2CCC[C@](CC[N+]34CCC(c5ccccc5)(CC3)CC4)(c3ccc(Cl)c(Cl)c3)C2)c1`
Out: < 1%

====

# Procedure Text: Solubility of compound A in water at the saturation point, 24 h, room temperature, UV spectrometry
# Assay type: physicochemical
# Condition Parameters: water; pH 7; 24 hours, room temperature; read-out: Concentration of compound A (solubility in water at saturation)
Quantity Measured: solubility at 24 h (µg/mL)
Dear colleague, please return just the value in µg/mL, with no unit written.

In: Report solubility at 24 h for `CC(C)Oc1cccc(CC(=O)N2CCC[C@](CC[N+]34CCC(c5ccccc5)(CC3)CC4)(c3ccc(Cl)c(Cl)c3)C2)c1`
Out: 290

All values here come from patent US6303626A.
